- Method Notes: Lipophilicity, log P of the compound
- Assay type: physicochemical
- Condition Summary: octanol/water
Give logP for every item shown.

[[record]]
smiles_data = "O=C(Cn1cc(-c2ccc(F)cc2F)nn1)NC12CC3CC(CC(C3)C1)C2"
result = 3.07

[[record]]
smiles_data = "O=C(Cn1cc(C2(O)CCCCC2)nn1)NC12CC3CC(CC(C3)C1)C2"
result = 1.93

[[record]]
smiles_data = "O=C(Cn1cc(-c2ccc(Cl)c(Cl)c2)nn1)NC12CC3CC(CC(C3)C1)C2"
result = 3.87


The following molecules each have a reported value; give each one's logP.
1. CC(=O)c1ccc(C)cc1OCc1cn(CC(=O)NC23CC4CC(CC(C4)C2)C3)nn1
2. O=C(Cn1cc(CCc2ccccc2)nn1)NC12CC3CC(CC(C3)C1)C2

1. 2.55
2. 3.03
